- measurement-target: T1, human pIgR extracellular domain (ECD) (human, UniProt P01833 19-638)
- T1 construct: also called hpIgR ECD
- T1 sequence (P01833 other isoform, or with tags, fused parts or gaps): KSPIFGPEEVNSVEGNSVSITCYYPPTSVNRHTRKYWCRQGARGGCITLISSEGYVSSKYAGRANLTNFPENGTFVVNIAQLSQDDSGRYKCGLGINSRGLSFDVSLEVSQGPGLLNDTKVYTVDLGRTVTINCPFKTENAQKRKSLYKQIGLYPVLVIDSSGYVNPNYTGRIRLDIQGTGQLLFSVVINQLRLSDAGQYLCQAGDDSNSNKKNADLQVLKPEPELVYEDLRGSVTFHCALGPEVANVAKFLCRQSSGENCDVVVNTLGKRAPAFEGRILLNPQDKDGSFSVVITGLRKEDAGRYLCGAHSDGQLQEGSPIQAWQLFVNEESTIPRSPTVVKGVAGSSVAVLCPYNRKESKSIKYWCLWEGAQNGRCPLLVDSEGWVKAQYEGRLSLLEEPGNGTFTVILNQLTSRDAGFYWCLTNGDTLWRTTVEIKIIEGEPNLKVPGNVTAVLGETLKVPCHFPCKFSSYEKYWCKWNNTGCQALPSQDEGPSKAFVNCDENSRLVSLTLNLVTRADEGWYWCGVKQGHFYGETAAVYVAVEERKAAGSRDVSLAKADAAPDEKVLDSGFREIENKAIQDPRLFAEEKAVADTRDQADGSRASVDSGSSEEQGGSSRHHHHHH
- protocol-notes: BLI; summary table, repeats Table 1
test-readout: Kd (nM)
Give bare numbers, in nM.

Examples with their reported Kd follow.
>  <binder>
VHH5-linker-mono-Fc protein (Fc fusion, made in CHO cells; also called VHH5-mono-Fc; hpIgR_175) QVQLVESGGGLVQAGGSLRLSCAASGRTFSSYAMGWFRQAPGKEREFVAAITWNGGTTYYADSVKGRFTISRDNAKNTVYLQMNSLKPEDTAVYYCAADPFNQGYWGQGTQVTVSSEPKTPKPQPQPQLQPQPNPTTESKSPKSPAPELLGGPSVFLFPPKPKDTLMISRTPEVTCVVVDVSHEDPEVKFNWYVDGVEVHNAKTKPREEQYNSTYRVVSVLTVLHQDWLNGKEYKCKVSNKALPAPIEKTISKAKGQPREPQVYTKPPSREEMTKNQVSLSCLVKGFYPSDIAVEWESNGQPENNYKTTVPVLDSDGSFRLASYLTVDKSRWQQGNVFSCSVMHEALHNHYTQKSLSLSPGK

>  <unit-text>
nM

>  <Kd>
11

$$$$
>  <binder>
VHH6-linker-mono-Fc protein (Fc fusion, made in CHO cells; also called VHH6-mono-Fc; hpIgR_181) EVQLVESGGGLVQAGGSLRLSCAVSGSSVSSDAMGWYRQAPGNQRAWVAFISGGGTTTYADSVKGRFTISRDNTKNTVYLHMNSLKPEDTAVYYCNHPLTSRWGQGTQVTVSSEPKTPKPQPQPQLQPQPNPTTESKSPKSPAPELLGGPSVFLFPPKPKDTLMISRTPEVTCVVVDVSHEDPEVKFNWYVDGVEVHNAKTKPREEQYNSTYRVVSVLTVLHQDWLNGKEYKCKVSNKALPAPIEKTISKAKGQPREPQVYTKPPSREEMTKNQVSLSCLVKGFYPSDIAVEWESNGQPENNYKTTVPVLDSDGSFRLASYLTVDKSRWQQGNVFSCSVMHEALHNHYTQKSLSLSPGK

>  <unit-text>
nM

>  <Kd>
27

$$$$
>  <binder>
VHH9-linker-mono-Fc protein (Fc fusion, made in CHO cells; also called VHH9-mono-Fc; hpIgR_221) QVQLVESGGGLVQAGGSLRLSCAVSGRTFSTYRMGWFRQAPGKERSFVAAISWSGGSTTYADPVKGRFTISRDNAKNTVYLRMNSLKPEDTAVYYCNDQRGYWGQGTLVTVSSEPKTPKPQPQPQLQPQPNPTTESKSPKSPAPELLGGPSVFLFPPKPKDTLMISRTPEVTCVVVDVSHEDPEVKFNWYVDGVEVHNAKTKPREEQYNSTYRVVSVLTVLHQDWLNGKEYKCKVSNKALPAPIEKTISKAKGQPREPQVYTKPPSREEMTKNQVSLSCLVKGFYPSDIAVEWESNGQPENNYKTTVPVLDSDGSFRLASYLTVDKSRWQQGNVFSCSVMHEALHNHYTQKSLSLSPGK

>  <unit-text>
nM

>  <Kd>
4

$$$$

Now consider the entry below.
Fill in Kd for record VHH4-linker-mono-Fc protein (Fc fusion, also called VHH4-mono-Fc; hpIgR_073) EVQVVESGGGLVQAGGSLRLSCAVSGTSVSSNAMGWYRQAPGKQREWVGFIDRIATTTIATSVKGRFAITRDNAKNTVYLQMSGLKPEDTAVYYCNHPLTARWGQGTQVTVSSEPKTPKPQPQPQLQPQPNPTTESKSPKSPAPELLGGPSVFLFPPKPKDTLMISRTPEVTCVVVDVSHEDPEVKFNWYVDGVEVHNAKTKPREEQYNSTYRVVSVLTVLHQDWLNGKEYKCKVSNKALPAPIEKTISKAKGQPREPQVYTKPPSREEMTKNQVSLSCLVKGFYPSDIAVEWESNGQPENNYKTTVPVLDSDGSFRLASYLTVDKSRWQQGNVFSCSVMHEALHNHYTQKSLSLSPGK
22
